Test: folding stability dG unfold (combined trypsin and chymotrypsin); higher = more stable
Field: folding stability dG unfold. Provide a value for each of the sequences that follow.
Numbers only, in kcal/mol.

Please review the entries below; each comes with its answer.
SAGGSAGGSAGGITPEYVERARKEAQDQYPPGKEREIIIRNPDNGKEITIRYTPDKIEIMSAGGSAGGSAGG [r7_45_TrROS] :: -0.147
SAGGSAGGMTKDDIIEKLKKEYPDKDVKVLKVEESVLPSGKILAKVTLEFPEEGKTFEKTFEVESAGGSAGG [r6_572_JUSTAS] :: 2.71

Next sequence, folding stability dG unfold to be filled in.
stdin: Provide folding stability dG unfold value for the following sequence: SAGGSAGGSAGGSMLVEKKTFKDPKTGKTYIEIVIKDENGNLLSVKILSTEDPEKIEKLLSAGGSAGGSAGG [r7_484_JUSTAS]
stdout: 2.37

---

I'd be grateful if you could share measured folding stability dG unfold for these entries.
Assay: folding stability dG unfold from trypsin proteolysis; higher = more stable
Answers are plain numbers, in kcal/mol.

SAGGSAGGSAGMRYEIEVEEVPPGLVRIRVRVDGKEYTILISEEEAKRLAEELGVEIEPVSAGGSAGGSAGG [r17_109_TrROS_Hall] :: 3.24
SLKPGETKTLTLLIRTKDPEKTAEELAEEARKEIEELLPPGVKIEVKVTSVEPLPETGEVDVTVEVTVTASA [r9_706_TrMRF] :: 3.02

Field: next sequence
stdin: Give me measured folding stability dG unfold, please, for this sequence: SAGGGMKLTITVTNADGSTTTETLTLGDLEKALEFLESDPTASLASIEIKPVPDTSEVEMNVSLTVPASAGG [r13_796_JUSTAS]
stdout: 1.29

---

Assign folding stability dG unfold to each entry below.
Experiment: folding stability dG unfold (combined trypsin and chymotrypsin); higher = more stable

Go through the list and state folding stability dG unfold for each entry.
1. SAGGSAGGSAGKKKPPPKVTLVIRVKMSPEEVKKLAELFPDAKVTVTYDEETGLLTVTFDSAGGSAGGSAGG [r17_254_TrROS_Hall]
2. SAGSVTATITLPSGETVTVDVAPDEERILTTPEGRLLRLTDVRPGAVAFTEGENFVPDEDGNLVPLSLLSAG [r5_417_JUSTAS]
3. SAGGSGNPNAPVPYIPKGYKTVPIPLKGDPNASEEELKKKLEEAKEKIKKEIDPTPDGIPIEINEGSAGGSA [r2_149_JUSTAS]

stdout:
> 6 kcal/mol
< -1 kcal/mol
< -1 kcal/mol

---

Would you kindly list folding stability dG unfold for each of these sequences?
Assay: folding stability dG unfold from trypsin proteolysis; higher = more stable
One number for each entry, in kcal/mol.

SAEVELKPDEELEFEFPDSQVKISYVPGTGVITTTTTFTTPDGTVVYKTTTIKKEGKEVTSTTVSLAEASSA [r9_881_JUSTAS] :: 0.389
SAGGKPPGLSEIPLPDNKTEKVPVNSDIVLKRPDGTELKYKLPPEPVTTEKNKYTIKLPNGEITIPINSAGG [r13_643_JUSTAS] :: -1.03
SAGGSAGGSMTIPESEFKQMSEEELKKLLLENPEPVTVVTSDPEILERIKKIFEKLGIKITLESAGGSAGGS [r12_97_JUSTAS] :: 2.4
SAGGSAGGKILVIEIEVDSPEKAVEKAKEIVKELGLPESVKIKEIVFFKEEGDKYRALVLVDLDSAGGSAGG [r6_282_TrMRF] :: 3.66
SAGGSASIGEELAKELFPDLPLKVEPKEVPLEDGKTETVVTATFPDGKKVTITFEGDKIVEVTEVESAGGSA [r15_417_JUSTAS] :: 0.445

Here is another sequence to look at.
stdin: Please list folding stability dG unfold recorded for the sequence SAGGSAGGSAGGKVTIEFPTSRVELYPLPGPFVLAEVSFPNRKLLALAHPDGDEILILPISAGGSAGGSAGG [r7_683_TrMRF]
stdout: 0.929

---

For each of the sequences below, state its folding stability dG unfold.
Test: folding stability dG unfold from chymotrypsin proteolysis; higher = more stable
Give bare numbers, in kcal/mol.

Example entries and their recorded answers appear below.
SMPGSITVEIEVEEEEDPERGGRRIKKLLIKKVTYKDEKGNSSDEVANEIKNALKEKLEKEGKPAEIELTSA [r9_261_JUSTAS] :: 1.11
SAGGSSMQTTVFILPGPEVPVEEVKAKIAKELGLDFETVTFIPAPSREEAEALAAALGVDGIIVEVDSAGGS [r8_245_JUSTAS] :: 2.66
SAGGSAGGSAGKWKTITILIPNMPVEEIADRIMDKFGPGIRITEITPNKPGWFWITIIVRSAGGSAGGSAGG [r11_580_TrROS] :: 3.82
SAGGDEIAKEIANHAREQGYKVEVKVERDEDGMVKIDVEMSMPNGRRVTFSITINPDGIEIQSIEVTPSAGG [r13_203_TrROS] :: 4.41
SAGVDGVKWNPESNEVSVEYEVNNQRVEQYIEPKPIPPVIVIPIDDIAERNPGLKDDLDENPGDWLVFPSAG [r5_958_TrROS] :: -0.332
SAGGSAGMPKVRIPIEEDPENGNILIRVKMPNSGREHEYHIPGNLKEAKENFEDHFGFDITDVEIWSAGGSA [r15_101_TrROS] :: -0.984

Could you report folding stability dG unfold for every entry in the following list?
1. SAGGSAGGSAGGSKPKKIKVETVTLEDGLTLQVVVNEDTKEKVIVLVPPSEEVTVLVEPSAGGSAGGSAGGS [r4_99_TrROS_Hall]
2. SAGGKKVEITIEASPEEAEELAKKLEELFPDVKVEVVEVKPEEPVRVTVRVEVKVELSPEELKKLLESAGGS [r16_180_TrROS_Hall]
3. SAGGGSMKTIELTVTNPATGETVTVTLELDPSVSEEEVEARIKETEEAVEKELLAPEPPLAPTPARASAGGS [r16_191_JUSTAS]
4. SAMSVTISFDPKGPGGTLTITADPNSPQIEKFINELKKKLNLDIKSYTKTILPNGTVKVTLTYSKINLPSAG [r14_655_JUSTAS]
5. SAEVRTVTDANGTQRTVTKTPDGTETVTTRPVPAPPPPPTVTVEVEYDAENGTLTVRLPDGSKLEFTFEDSA [r9_56_TrROS_Hall]
6. SAGGSASMSNVTSYVTVYKKPGVDDLYYKVRILAPSEPKVIEIPESEIPKYEKEGIKIEKVSEELLSAGGSA [r15_783_JUSTAS]
7. SAGGSAPEALVFVERREDDSLTVVVLFPDGTLVTRRVEVRDEGVTVETETAPVLVIPEPGRLELALSAGGSA [r15_746_TrMRF]

stdout:
1.11
1.37
1.22
4.66
0.982
1.96
1.39

Hello, I would appreciate it if you could give folding stability dG unfold for each entry below.
1. SAGGSAGGSAGGSLVSTSPLPSSSTLVTEKGPSPEVTVTVVTVKPGGSRSVTTLPVSESSAGGSAGGSAGGS [r10_140_JUSTAS]
2. SAGGSAGGSAGGVAEWIQEQGFKVKDIPVPRPPNGNPWVKVEVEHDGGKRTYEIPLDEISAGGSAGGSAGGS [r10_35_TrROS]

stdout:
0.474
0.487

---

Assay: folding stability dG unfold from chymotrypsin proteolysis; higher = more stable
Using folding stability dG unfold as the sorting value, the categories are label 0 = under 0.3 kcal/mol, label 1 = from 0.3 kcal/mol up to 2 kcal/mol, label 2 = 2 kcal/mol and over

SAGGPWVVIKIRTPNKPIEIPIPGFKIENTGDSMTIVFPPDDPDQVLDALEKASPGIKITKIEVVKPSAGGS [r8_490_TrROS] :: label 1

stdin: Class for SAGGSAGGSAGGGSSMITLERESEPGETFEFNFPGVSEVTVTEVIPGDGKVTVKVEVTSPSAGGSAGGSAGG [r7_292_JUSTAS] ?
stdout: label 0

stdin: Bin this entry: SAGGSAGGSPMPVIEEVPLNPVEEKPDPSSNTLTVKYPDGTYRILTKNPDGSYSFKVLPSSSISAGGSAGGS [r12_351_JUSTAS]
stdout: label 1

stdin: Kindly state the category for this sequence: SAGGSAGGMSPDAKPIGEKTDESPGPEKVTTTTLKSPDPSLTYTVTTTTVGSTTTTTTTAVPVLSAGGSAGG [r6_923_JUSTAS]
stdout: label 0

stdin: Category of SAGGSELKPGDLVEVKVTVEFDEETGKATVEVEFNGKKLTVEVELEENQPPTVEVTLLVRIDKIEPSAGGSA [r2_113_TrROS_Hall] , please.
stdout: label 2

stdin: For SAGGSAGGSAGMEYSIDKASGKILIKIPDEDKTWILYDPKTGEKYIFKQIGGKWYKVEKVSAGGSAGGSAGG [r11_1036_TrMRF] , which folding stability dG unfold bin applies?
stdout: label 1

stdin: Which class is correct for the following sequence? SALEELLKELAEKLGYPYTVLEIKKEENTYKMVIKLTKEGTPVIVDVEIEFPSSDPNVYKVKIKKIEEPSAG [r14_387_JUSTAS]
stdout: label 2

stdin: Band for the recorded folding stability dG unfold of SAGGSAGGKYEIVEVEEKEVNGEKYLIFKVKNENGEELLITVSKEDAEKILASLPPGATVEILPSAGGSAGG [r6_111_TrROS_Hall] ?
stdout: label 2

stdin: Textbook exercise: identify the category of the sequence given here, SAGGSAGGSAGPFEGYRDKKGKYYLETPDGTKELDSEEELEEEKKRLLEEGIPINVKPSASAGGSAGGSAGG [r17_35_JUSTAS] , according to its measured value.
stdout: label 1

stdin: Assign a category based on measured folding stability dG unfold for SAGGSAELAKALGLKVTVEVEEEDGYLTVKVTVTGPNGEEKTFTMVIKIEPLPPPKKVKKGDKKNKSAGGSA [r15_843_TrROS_Hall] and give only the class name.
stdout: label 2
